Test system: cardiovascular system (mean blood pressure, coronary blood flow)
TEST DESCRIPTION: Effects on the cardiovascular system in anesthetized dogs (i.v.)
Format: in vivo, Mongrel dogs
SETTINGS: 10 μg/kg i.v.
MEASUREMENT LABEL: MBP: mean blood pressure-lowering effect (percent reduction)

# example entries with known answers
* CC1(C)CN(C2=CCCC2=O)c2cc([N+](=O)[O-])ccc2O1 [Example 70] | -9 Δ%
* CC1(C)CN(c2cccc[n+]2[O-])c2cc(C#N)ccc2O1 [Example 2] | -20 Δ%
* CC1(C)Oc2ccc(C#N)cc2C(N2CCCC2=O)C1O (stereo not shown) [Cromakalim, reference compound] | -28 Δ%

// next entry
Need MBP: mean blood pressure-lowering effect (percent reduction), item CC(=O)CN1CC(C)(C)Oc2ccc([N+](=O)[O-])cc21 [Example 38]
-23 Δ%

* * *

Overview of reported LD50 across a group of compounds:
TEST DESCRIPTION: Acute toxic effect (LD50), intravenous
SETTINGS: mouse, in vivo, i.v. (caudal vein), male mice, up and down method, read-out: LD50, acute toxic dose
All answers are understood in mg/kg, so give the number only.

* CC1(C)Oc2ccc(C#N)cc2C(N2CCCC2=O)C1O (stereo not drawn) [Cromakalim, reference compound] | 49.7

Okay, next one:
Please give the measured LD50 for this compound: "CC1(C)CN(c2cccc[n+]2[O-])c2cc([N+](=O)[O-])ccc2O1"
50.4
